The measured values listed here are drawn from ChEMBL document CHEMBL2375274.

Consider the following compounds and their measured Ki readings.
EXPERIMENTAL_SYSTEM: Translocator protein (Rattus norvegicus)
Sequence (P16257 whole entry, looked up): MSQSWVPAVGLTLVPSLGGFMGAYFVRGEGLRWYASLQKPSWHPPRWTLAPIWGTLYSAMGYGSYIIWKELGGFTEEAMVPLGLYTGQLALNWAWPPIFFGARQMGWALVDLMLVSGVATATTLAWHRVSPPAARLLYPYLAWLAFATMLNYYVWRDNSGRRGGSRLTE
The figure you give is taken to be in nM; do not add the unit.

Examples with their reported Ki follow.
COMPOUND: CCN(CC)C(=O)C1Sc2ccccc2-c2c1c1cc(OC)ccc1n2CCF (single isomer, unassigned; form 1)
UNIT_SPEC: nM
Ki: 1.17

COMPOUND: CCN(CC)C(=O)C1Sc2cc(NC(C)=O)ccc2-c2c1c1ccccc1n2CCF (racemic)
UNIT_SPEC: nM
Ki: 0.39

COMPOUND: CCN(CC)C(=O)C1Sc2ccccc2-c2c1c1cccnc1n2CCF (racemic)
UNIT_SPEC: nM
Ki: 3.92

COMPOUND: CCN(CC)C(=O)C1Sc2ccccc2-c2c1c1ccccc1n2Cc1cn(CCF)nn1 (racemic)
UNIT_SPEC: nM
Ki: 63.6

COMPOUND: CCN(CC)C(=O)C1Sc2cc(OC)ccc2-c2c1c1ccccc1n2CCF (racemic)
UNIT_SPEC: nM
Ki: 0.3

Query: System Translocator protein (Rattus norvegicus). Read-out Ki. Item CCN(CC)C(=O)C1Sc2ccccc2-c2c1c1cc(O)ccc1n2CCF (racemic) . Report value.
Reply: 19

Query: System Translocator protein (Rattus norvegicus). Read-out Ki. Item CCN(CC)C(=O)C1Sc2ccccc2-c2c1c1ccc(OC)cc1n2CCF (racemic) . Report value.
Reply: 0.4

Query: System Translocator protein (Rattus norvegicus). Read-out Ki. Item CCN(CC)C(=O)C1c2c(n(CCF)c3ccccc23)-c2ccccc2S1(=O)=O (racemic) . Report value.
Reply: 8.79

Query: System Translocator protein (Rattus norvegicus). Read-out Ki. Item CCN(CC)C(=O)C1Sc2ccccc2-c2c1c1ccccc1n2CCF (single isomer, unassigned; form 2) . Report value.
Reply: 0.22

Query: System Translocator protein (Rattus norvegicus). Read-out Ki. Item CCN(CC)C(=O)C1Sc2ccc(OC)cc2-c2c1c1ccccc1n2CCF (racemic) . Report value.
Reply: 0.3

Query: System Translocator protein (Rattus norvegicus). Read-out Ki. Item CCN(CC)C(=O)C1Sc2ccccc2-c2c1c1c(OC)cccc1n2CCF (racemic) . Report value.
Reply: 1.09

Query: System Translocator protein (Rattus norvegicus). Read-out Ki. Item CCN(CC)C(=O)C1Sc2ccc(F)cc2-c2c1c1ccccc1n2CCF (racemic) . Report value.
Reply: 0.39

Query: System Translocator protein (Rattus norvegicus). Read-out Ki. Item CCN(CC)C(=O)C1c2ccccc2-c2[nH]c3ccccc3c21 (racemic) . Report value.
Reply: 0.8

Query: System Translocator protein (Rattus norvegicus). Read-out Ki. Item CCN(CC)C(=O)C1Sc2ccccc2-c2c1c1ccccc1n2CCF (single isomer, unassigned; form 1) . Report value.
Reply: 5.24

Query: System Translocator protein (Rattus norvegicus). Read-out Ki. Item CCN(CC)C(=O)C1Sc2ccccc2-c2c1c1cc(Br)ccc1n2CCF (racemic) . Report value.
Reply: 0.47

Query: System Translocator protein (Rattus norvegicus). Read-out Ki. Item CCN(CC)C(=O)C1Sc2ccccc2-c2c1c1cccc(OC)c1n2CCF (racemic) . Report value.
Reply: 0.93

Query: System Translocator protein (Rattus norvegicus). Read-out Ki. Item CCN(CC)C(=O)C1Sc2ccccc2-c2c1c1cc(C)ccc1n2CCF (racemic) . Report value.
Reply: 0.34

Query: System Translocator protein (Rattus norvegicus). Read-out Ki. Item CCN(CC)C(=O)C1Sc2ccccc2-c2c1c1cc(C#N)ccc1n2CCF (racemic) . Report value.
Reply: 0.19
